Observed IC50, system Norepinephrine transporter (Rattus norvegicus).
A complete answer gives the number followed by the unit.

These solved cases illustrate the format of a correct answer.
Compound: CN1C2CCC1C(c1nc(-c3ccccc3)no1)C(c1ccc(Cl)cc1)C2 (centres undefined)
IC50: 245 nM
//
Compound: CN1C2CC[C@@H]1C[C@H](c1ccc(Cl)cc1)C2c1cc(-c2ccccc2)no1 (some centres undefined)
IC50: 504 nM
//
Compound: CN1C2CCC1C(c1nnc(-c3ccccc3)o1)C(c1ccc(Cl)cc1)C2 (centres undefined)
IC50: 929 nM

Request: Record request: IC50 value, item CN1C2CCC1C(c1ncc(-c3ccccc3)o1)C(c1ccc(Cl)cc1)C2 (centres undefined)
Response: 496 nM
